- assayed_system: Ubiquitin carboxyl-terminal hydrolase 28 (Homo sapiens) (UniProt Q96RU2)
- Sequence (Q96RU2 whole entry, looked up): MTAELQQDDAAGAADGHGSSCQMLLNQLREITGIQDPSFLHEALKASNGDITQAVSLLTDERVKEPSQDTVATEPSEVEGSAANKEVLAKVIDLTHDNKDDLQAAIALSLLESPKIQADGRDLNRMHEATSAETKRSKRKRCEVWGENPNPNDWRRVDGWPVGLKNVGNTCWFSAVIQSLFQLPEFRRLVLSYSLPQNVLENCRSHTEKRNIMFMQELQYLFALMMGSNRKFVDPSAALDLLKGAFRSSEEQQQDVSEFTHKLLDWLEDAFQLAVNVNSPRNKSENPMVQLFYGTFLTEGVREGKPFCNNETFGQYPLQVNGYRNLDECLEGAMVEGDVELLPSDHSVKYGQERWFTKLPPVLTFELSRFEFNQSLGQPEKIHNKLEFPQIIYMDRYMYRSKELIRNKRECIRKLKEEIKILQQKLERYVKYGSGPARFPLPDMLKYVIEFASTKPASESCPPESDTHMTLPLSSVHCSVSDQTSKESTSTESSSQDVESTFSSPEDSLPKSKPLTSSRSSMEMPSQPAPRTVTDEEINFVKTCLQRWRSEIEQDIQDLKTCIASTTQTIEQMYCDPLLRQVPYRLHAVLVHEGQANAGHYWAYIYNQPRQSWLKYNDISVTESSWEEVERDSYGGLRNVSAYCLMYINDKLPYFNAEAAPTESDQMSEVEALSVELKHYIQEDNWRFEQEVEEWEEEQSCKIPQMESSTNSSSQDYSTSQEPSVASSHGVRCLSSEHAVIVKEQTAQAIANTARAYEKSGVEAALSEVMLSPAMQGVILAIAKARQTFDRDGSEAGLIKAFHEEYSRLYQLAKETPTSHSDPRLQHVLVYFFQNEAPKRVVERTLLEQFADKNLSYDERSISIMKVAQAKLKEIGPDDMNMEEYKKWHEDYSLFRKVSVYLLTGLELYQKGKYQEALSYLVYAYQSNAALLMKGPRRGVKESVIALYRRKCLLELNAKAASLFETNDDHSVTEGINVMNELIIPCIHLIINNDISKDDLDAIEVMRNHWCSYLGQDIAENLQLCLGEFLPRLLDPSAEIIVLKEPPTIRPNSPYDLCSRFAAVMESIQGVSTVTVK
- method_summary: inhibitors of human USP28 deubiquitinase (AID 1645857)
- stated_conditions: purified USP28, Ub-rhodamine cleavage fluorescence, 30 min; at 25 µM
About 1,400 (3%) of roughly 47,000 compounds were called active. Cut-off read from the data, not from the text of the source: active = inhibition above about 30%; inactive = the rest. The full list was thinned out, with actives kept by preference.
Hi! Could you answer with just one of these? 1.0 (active), 0.0 (inactive)

Worked cases, answers included:
molecule: CC(C)(C)c1nn(-c2ccccc2)c2[nH]c(=O)c(CNCCc3ccccc3)cc12
category_label: 0.0
--
molecule: Cc1cc(C)n(CC2CCCCN2CC(=O)NC2(C#N)CCCC2)n1 (stereo not given)
category_label: 0.0
--
molecule: CCOC(=O)c1cc2c(ccn2C)n1CC(=O)Nc1ccc2c(c1)OCCO2
category_label: 0.0
--
molecule: Cc1ccc(C)c(CSC2=NCCN2C(=O)c2ccco2)c1
category_label: 1.0
--
molecule: O=C(NCc1cccnc1)C1CCN(c2cnc(N3CCCCCC3)nc2)CC1
category_label: 1.0

Prompt: Answer briefly: the call reported for `Cc1ccc(C)c(CSc2nc(-c3ccco3)nc3c2c(=O)n(C)c(=O)n3C)c1` in this assay.
Response: 0.0

Prompt: Ok, now CC1(C(=O)NC2CCCCCC2)Cn2c(nc3ccccc32)C(=O)N1CCc1ccccc1 (stereo not given)
Response: 0.0

Prompt: Ok, now `Cc1cccc(CNC(=O)C2CCN(c3cnc4nccnc4c3)CC2)c1`
Response: 0.0

Prompt: Ok, now `COc1ccc(S(=O)(=O)c2cnc3cc(OC)c(OC)cc3c2N2CCOCC2)cc1`
Response: 0.0

Prompt: Ok, now `COc1ccccc1-c1ccc2nnc(SCC(=O)Nc3ccc4c(c3)OCCO4)n2n1`
Response: 0.0

====

- assayed_system: Ubiquitin carboxyl-terminal hydrolase 28 (Homo sapiens)
- method_summary: inhibitors of human USP28 deubiquitinase (AID 1645857)
- stated_conditions: purified USP28, Ub-rhodamine cleavage fluorescence, 30 min; at 25 µM
The campaign covered roughly 47,000 compounds. About 1,400 (3%) were called active. No stated cut-off is given here; in the data, active means inhibition above about 30%; inactive means the rest. Shown is part of a subset that was picked to be rich in actives.
Hi! Could you answer with just one of these? active, inactive

molecule: N#Cc1ccc(C(=O)N2CCC(c3nc(-c4ccccc4)no3)CC2)cc1
assayed_system: Ubiquitin carboxyl-terminal hydrolase 28 (Homo sapiens)
category_label: inactive
//
molecule: CC(C)CN1C[C@@]23CN(C(=O)NCCc4ccc(F)cc4)C[C@@H](C[C@@H]2S1(=O)=O)O3
assayed_system: Ubiquitin carboxyl-terminal hydrolase 28 (Homo sapiens)
category_label: active
//
molecule: Cc1nc2ccccc2c(=O)n1CC(=O)N1CCCc2ccccc21
assayed_system: Ubiquitin carboxyl-terminal hydrolase 28 (Homo sapiens)
category_label: inactive
//
molecule: CCN1CCC2(CC1)OC(=O)C(C)=C2C(=O)NCc1ccccc1OC
assayed_system: Ubiquitin carboxyl-terminal hydrolase 28 (Homo sapiens)
category_label: inactive
//
molecule: COCCN1C[C@@]23CN(C(=O)NCc4ccccc4)C[C@@H](C[C@@H]2S1(=O)=O)O3
assayed_system: Ubiquitin carboxyl-terminal hydrolase 28 (Homo sapiens)
category_label: inactive

Next, consider the following molecule.
Prompt: Answer briefly: the call reported for `N#Cc1cccc(CSc2ncnc(N)n2)c1` in this assay.
Response: active

====

- assayed_system: Ubiquitin carboxyl-terminal hydrolase 28 (Homo sapiens) (UniProt Q96RU2)
- method_summary: inhibitors of human USP28 deubiquitinase (AID 1645857)
- stated_conditions: purified USP28, Ub-rhodamine cleavage fluorescence, 30 min; at 25 µM; hits give high values
In all, about 47,000 compounds went through this assay and about 1,400 (3%) were called active. Many of the other results were omitted from the sample, so actives are more common in it than they were.
observed_property: inhibition

Worked cases, inhibition given:
compound: O=C(NCCc1ccccc1)c1ccc2c(=O)n(Cc3ccco3)c(=O)n(Cc3cccc([N+](=O)[O-])c3)c2c1
assayed_system: Ubiquitin carboxyl-terminal hydrolase 28 (Homo sapiens) (UniProt Q96RU2)
inhibition: 73.4% (active)

compound: O=C(NCCc1ccccc1)c1ccc2c(=O)nc3c(-c4ccccc4F)n[nH]n3c2c1
assayed_system: Ubiquitin carboxyl-terminal hydrolase 28 (Homo sapiens) (UniProt Q96RU2)
inhibition: -8.97% (inactive)

compound: COc1ccc(NC(=O)CC[C@@H]2NC(=O)N([C@@H](C)c3ccccc3)C2=O)cc1
assayed_system: Ubiquitin carboxyl-terminal hydrolase 28 (Homo sapiens) (UniProt Q96RU2)
inhibition: 8.47% (inactive)

compound: Cc1cc(-c2ncc(C)[nH]2)nc(C2CCCCN2C(=O)c2ccccc2)n1 (stereo not given)
assayed_system: Ubiquitin carboxyl-terminal hydrolase 28 (Homo sapiens) (UniProt Q96RU2)
inhibition: 5.54% (inactive)

compound: Cc1ccc(S(=O)(=O)NCC(c2ccc3c(c2)CCN3C)N2CCCC2)c(C)c1 (stereo not given)
assayed_system: Ubiquitin carboxyl-terminal hydrolase 28 (Homo sapiens) (UniProt Q96RU2)
inhibition: -0.036% (inactive)

Prompt: Data request, read-out inhibition, for `COCCN1C(=O)CCc2cc(NS(=O)(=O)c3cc(C)cc(C)c3)ccc21`
Response: -19.5% (inactive)

Prompt: Ok, now `O=C(Cn1c(=O)n(Cc2ccc3c(c2)OCO3)c(=O)c2ccccc21)NCc1ccco1`
Response: 26.3% (inactive)

Prompt: Ok, now `Cc1ccc(-n2cc(-c3noc(C(=O)Nc4ccc(F)cc4C)n3)nn2)cc1`
Response: 13.4% (inactive)

Prompt: Ok, now `Oc1cccc2nc3c(O)cccc3nc12`
Response: 61.8% (active)

Prompt: Ok, now `COc1ccc2c(c1)OC[C@@H](Cc1ccccc1)N(Cc1ccncc1)[C@H]2C`
Response: 8.99% (inactive)

Reference for the values: PubChem BioAssay AID1645857
